Origin of measurements: PubChem BioAssay (NCATS)

conditions: Ebola virus entry cell assay, ratio channel
Activity calls are given as the source filed them. The call rests on the fitted dose curve.
Parameter call: string, one of active, inactive

COc1ccccc1OCC(O)CN1CCN(CC(=O)Nc2c(C)cccc2C)CC1 (stereo unspecified) | inactive
OCCN1CCN(CCCN2c3ccccc3Sc3ccc(C(F)(F)F)cc32)CC1 | active
CC(C)NCC(O)COc1cccc2[nH]ccc12 (stereo unspecified) | inactive

Prompt: Assay outcome for CS(=O)(=O)CCNCc1ccc(-c2ccc3ncnc(Nc4ccc(OCc5cccc(F)c5)c(Cl)c4)c3c2)o1 : what was it?
Completion: inactive

Prompt: Likewise for COc1ccc(C(CN(C)C)C2(O)CCCCC2)cc1 (stereo unspecified) ?
Completion: inactive

Prompt: Entry to check: O=C(NCCN1CCOCC1)c1ccc(Cl)cc1
Completion: inactive

Prompt: Same question, CN(C)CCc1c[nH]c2ccc(C[C@H]3COC(=O)N3)cc12 this time
Completion: inactive

Prompt: What would you report for CCCN1C[C@H](CSC)C[C@@H]2c3cccc4[nH]cc(c34)C[C@H]21 ?
Completion: inactive

Prompt: # repeat for CC1=C(C(=O)O)N2C(=O)[C@@H](NC(=O)[C@H](N)c3ccccc3)[C@H]2SC1
Completion: inactive

Prompt: COC(=O)C1=C(C)NC(C)=C(C(=O)OCC(C)C)C1c1ccccc1[N+](=O)[O-] (stereo unspecified) , same question.
Completion: inactive

Prompt: Please answer likewise for CN(Cc1cnc2nc(N)nc(N)c2n1)c1ccc(C(=O)N[C@@H](CCC(=O)O)C(=O)O)cc1
Completion: inactive

Prompt: Item: CN(C)CC/C=C1\c2ccccc2COc2ccccc21
Completion: active

Prompt: Another molecule to check: COc1cc2nc(N3CCN(C(=O)C4COc5ccccc5O4)CC3)nc(N)c2cc1OC (stereo unspecified)
Completion: inactive

Prompt: Try this molecule next: Cn1c(CCCC(=O)O)nc2cc(N(CCCl)CCCl)ccc21
Completion: inactive

Prompt: And then CC(N)C12CC3CC(CC(C3)C1)C2 (stereo unspecified) , what is it?
Completion: inactive

Prompt: Next record, please: CO/N=C(\C(=O)N[C@@H]1C(=O)N2C(C(=O)O)=C(CSc3nc(=O)c(O)nn3C)CS[C@H]12)c1csc(N)n1
Completion: inactive

Prompt: One more molecule: NC(=O)NO
Completion: inactive

Prompt: Now this one: C[C@H]1O[C@H](O[C@H]2[C@H](O)[C@@H](O)[C@@H](O[C@H]3[C@H](O)[C@@H](O)[C@H](O)O[C@@H]3CO)O[C@@H]2CO)[C@H](O)[C@@H](O)[C@@H]1N[C@H]1C=C(CO)[C@@H](O)[C@H](O)[C@H]1O
Completion: inactive

Prompt: And the next one, O=C(O)P(=O)(O)O ?
Completion: inactive

Prompt: Now this one: O[C@@H](CNC[C@H](O)[C@H]1CCc2cc(F)ccc2O1)[C@@H]1CCc2cc(F)ccc2O1
Completion: active

Prompt: What do you get for CCCC(CCC)C(=O)O ?
Completion: inactive
